System: Caspase 3
Method summary: Caspase 3 detection assay in SJSA1 cells
Type: cell-based
Particulars: 0.3 μM, SJSA1, 48 h, Caspase 3 activation over DMSO-treated cells
Bridge positions count the residues as written; N and C are the ends. Square brackets hold non-standard residues; d marks the D form. Peptide text beside a SMILES is read from it. R8 = C=CCCCCCC[C@@](C)(N)C(=O)O; S5 = C=CCCC[C@](C)(N)C(=O)O
Parameter caspase 0.3 μM: see the listing below.
Property name: caspase 0.3 μM

Compound: CC(=O)N[C@@H](CC(C)C)C(=O)N[C@H](C(=O)N[C@@H](Cc1ccccc1)C(=O)N[C@]1(C)CCCCCCC=CCCC[C@@](C)(C(=O)N[C@@H](CO)C(=O)N[C@H](C(=O)NCC(N)=O)C(C)C)NC(=O)[C@H](CC(C)C)NC(=O)[C@H](CCC(N)=O)NC(=O)[C@H](C)NC(=O)[C@H](Cc2c[nH]c3ccccc23)NC(=O)[C@H](Cc2ccc(O)cc2)NC(=O)[C@H](C)NC1=O)[C@@H](C)O [compound 123] (Ac-LTF[R8]AYWAQL[S5]SVG-NH2; staple 4-11)
Experimental result: 1
--
Compound: CC(=O)N[C@@H](C)C(=O)N[C@@H](C)C(=O)N[C@@H](CC(C)C)C(=O)N[C@H](C(=O)N[C@@H](Cc1ccccc1)C(=O)N[C@]1(C)CCCCCCC=CCCC[C@@](C)(C(=O)N[C@@H](CO)C(=O)N[C@@H](C)C(=O)N[C@@H](C)C(=O)N[C@@H](C)C(=O)N[C@H](C)C(N)=O)NC(=O)[C@H](CC2CCC2)NC(=O)[C@H](CCC(N)=O)NC(=O)[C@H](C)NC(=O)[C@H](Cc2c[nH]c3ccccc23)NC(=O)[C@H](Cc2ccc(O)cc2)NC(=O)[C@H](CCC(=O)O)NC1=O)[C@@H](C)O (single isomer, unassigned) [compound 358]
Experimental result: 1
